Please provide measured pKi for the entries that follow.
target: ERK2 (Homo sapiens); experiment: ERK2 inhibition, spectrophotometric coupled-enzyme assay; type: biochemical; conditions: activated ERK2 10 nM, 65 μM ATP, 30° C., pH 7.5; read-out: ERK2 Inhibitory Activity (Ki class)
Sequence (P28482 whole entry): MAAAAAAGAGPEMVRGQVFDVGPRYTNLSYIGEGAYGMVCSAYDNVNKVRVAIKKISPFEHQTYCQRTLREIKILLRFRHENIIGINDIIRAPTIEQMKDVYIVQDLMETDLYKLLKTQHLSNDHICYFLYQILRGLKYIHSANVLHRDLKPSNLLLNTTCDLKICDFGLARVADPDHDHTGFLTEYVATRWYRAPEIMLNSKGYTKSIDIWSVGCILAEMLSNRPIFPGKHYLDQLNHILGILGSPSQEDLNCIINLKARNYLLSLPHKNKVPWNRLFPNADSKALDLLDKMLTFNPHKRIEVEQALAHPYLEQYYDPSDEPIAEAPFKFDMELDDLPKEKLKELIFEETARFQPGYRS
pKi: −log10 of the molar value.

**Q:** Any idea what pKi came out for "O=C(NOCc1ccccc1)c1cc(-c2[nH]ncc2-c2cc(F)ccc2F)c[nH]1" on ERK2 (Homo sapiens)?
**A:** > 6.00

**Q:** Okay, and "O=C(c1cc(-c2[nH]ncc2-c2cccc(Br)c2)c[nH]1)N(CCCO)Cc1ccccc1" ?
**A:** 5.30 to 6.00

**Q:** Okay, and "CCN(C)C(=O)c1cc(-c2[nH]ncc2-c2ccc(Cl)c(Cl)c2)c[nH]1" ?
**A:** > 6.00

**Q:** Okay, and "O=C(NCc1ccccc1)c1cc(-c2[nH]ncc2-c2cccc(Br)c2)c[nH]1" ?
**A:** < 5.30

**Q:** Okay, and CC(C)(C)OC(=O)N1CCCC(CNC(=O)c2cc(-c3[nH]ncc3-c3cccc(Cl)c3F)c[nH]2)C1 (stereo not drawn) ?
**A:** 5.30 to 6.00

**Q:** Okay, and O=C(NCC1CCCO1)c1cc(-c2[nH]ncc2-c2ccc(F)c(F)c2)c[nH]1 (stereo not drawn) ?
**A:** 5.30 to 6.00

**Q:** Okay, and "O=C(N[C@@H](CO)c1ccccc1)c1cc(-c2[nH]ncc2-c2cc(Cl)cc(Cl)c2)c[nH]1" ?
**A:** > 6.00

**Q:** Okay, and "CN(C)CCNC(=O)c1cc(-c2[nH]ncc2-c2ccccc2)c[nH]1" ?
**A:** < 5.30

**Q:** Okay, and "O=C(NCc1cccnc1)c1cc(-c2[nH]ncc2-c2cccc(F)c2)c[nH]1" ?
**A:** 5.30 to 6.00

**Q:** Okay, and "O=C(NCc1ccccc1)c1cc(-c2[nH]ncc2-c2ccc(Cl)cc2)c[nH]1" ?
**A:** > 6.00

**Q:** Okay, and "CCOC(=O)c1cc(-c2[nH]ncc2-c2cccc(Br)c2)c[nH]1" ?
**A:** 5.30 to 6.00

**Q:** Okay, and "O=C(c1cc(-c2[nH]ncc2-c2cccc(Br)c2)c[nH]1)N(CCCO)Cc1ccncc1" ?
**A:** 5.30 to 6.00

**Q:** Okay, and O=C(NC(CO)c1ccccc1)c1cc(-c2[nH]ncc2-c2cccc(C(F)(F)F)c2)c[nH]1 (stereo not drawn) ?
**A:** > 6.00

**Q:** Okay, and "O=C(NCc1cccnc1)c1cc(-c2[nH]ncc2-c2cc(Cl)cc(Cl)c2)c[nH]1" ?
**A:** > 6.00

**Q:** Okay, and "CN(Cc1ccccc1)C(=O)c1cc(-c2[nH]ncc2-c2cccc(Br)c2)c[nH]1" ?
**A:** > 6.00

**Q:** Okay, and "O=C(N[C@@H](CO)Cc1ccccc1)c1cc(-c2[nH]ncc2-c2cccc(Br)c2)c[nH]1" ?
**A:** > 6.00

**Q:** Okay, and "CC(C)NC(=O)c1cc(-c2[nH]ncc2-c2ccccc2)c[nH]1" ?
**A:** > 6.00

**Q:** Okay, and "O=C(c1cc(-c2[nH]ncc2-c2ccccc2)c[nH]1)N1CCOCC1" ?
**A:** > 6.00

**Q:** Okay, and "O=C(c1cc(-c2[nH]ncc2-c2cccc(Br)c2)c[nH]1)N1CCC(O)(c2ccccc2)CC1" ?
**A:** > 6.00

**Q:** Okay, and "O=C(NOCc1ccccc1)c1cc(-c2[nH]ncc2-c2ccc(Cl)cc2)c[nH]1" ?
**A:** > 6.00

**Q:** Okay, and "CCN(C)C(=O)c1cc(-c2[nH]ncc2-c2cc(Cl)cc(Cl)c2)c[nH]1" ?
**A:** > 6.00

**Q:** Okay, and "O=C(NCCO)c1cc(-c2[nH]ncc2-c2cccc(Br)c2)c[nH]1" ?
**A:** 5.30 to 6.00

**Q:** Okay, and "COc1cccc(-c2cn[nH]c2-c2c[nH]c(C(=O)NCc3ccco3)c2)c1" ?
**A:** > 6.00

**Q:** Okay, and "O=C(NC[C@@H]1CCCC[C@@H]1O)c1cc(-c2[nH]ncc2-c2cccc(Br)c2)c[nH]1" ?
**A:** > 6.00
